# System: P388
# experimental-protocol: The compound was tested in vitro for antitumor activity(50% inhibition of tumor cell growth) against the P388 murine cell lines after 72 hours
# Assay type: functional
# measurement-context: Mus musculus, P388, 72 h; read-out: ID50 (the source's name)
// reported IC50 for each item listed
The reply should read as a number followed by its unit.

Some compounds with recorded IC50:
compound: Nc1ccn([C@@H]2O[C@H](CO)[C@@H](O)[C@@H]2O)c(=O)n1
test-system: P388
IC50: 0.02 µM
//
compound: Nc1ccnc2c1ncn2[C@@H]1O[C@H](CO)[C@@H](O)[C@H]1O
test-system: P388
IC50: 1.1 µM
//
compound: O=[N+]([O-])c1ccnc2c1ncn2C1O[C@H](CO)[C@@H](O)[C@H]1O (some centres undefined)
test-system: P388
IC50: 12.5 µM

-- ask Please give the documented IC50 of "Nc1ncnc2c1ncn2[C@@H]1O[C@H](CO)[C@@H](O)[C@H]1O"
-- reply 12.7 µM

* * *

# System: KB
# experimental-protocol: The compound was tested in vitro for antitumor activity(50% inhibition of tumor cell growth) against KB human cell lines after 72 hr
# Type: functional
# measurement-context: read-out: ID50 (the source's name)
pIC50: −log10 of the molar value.
Classify as follows. Reported pIC50 greater than or equal to 6: met. Reported pIC50 below: not met.

compound: Nc1ncnc2c1ncn2[C@@H]1O[C@H](CO)[C@@H](O)[C@H]1O
group-label: not met

compound: O=c1[nH]cc(F)c(=O)[nH]1
group-label: not met

compound: Nc1ccnc2c1ncn2[C@@H]1O[C@H](CO)[C@@H](O)[C@H]1O
group-label: met

Continue with the next compound.
-- ask Does the reported pIC50 for O=[N+]([O-])c1ccnc2c1ncn2C1O[C@H](CO)[C@@H](O)[C@H]1O (stereo not given in full) fall at or above the 6 mark?
-- reply not met

* * *

# Tested on: L1210
# experimental-protocol: The compound was tested in vitro for antitumor activity(50% inhibition of tumor cell growth) against the L1210 murine cell lines after 72 hours
# Format: functional
# measurement-context: Mus musculus, L1210, 72 h; read-out: ID50 (the source's name)
readout-kind: IC50 (nM)
Numeric answer only, unit nM assumed.

-- ask Please give the documented IC50 of O=c1[nH]cc(F)c(=O)[nH]1 [FLUOROURACIL]
-- reply 400
